- System: MDA-MB-468
- Measurement Protocol: IC50 of Compound 1 on breast cells (MTT assay)
- Format: cell-based
- Reported Conditions: Homo sapiens; MDA-MB-468 cells
Readout Label: pIC50
In textbook form, pIC50 equals minus log to base ten of the concentration in mol/L.

Item CCCCc1ncc(C(=O)C2CC=C(C(N)=O)N2)cc1C(=O)OCC (stereo not shown) has what recorded pIC50? 5.38
